test system: A549 NSCLC; test: NCI tumour cell line growth inhibition, 48 h
Assay Endpoint: GI50

Consider the following illustrative entries.
CN(C)c1ncnc2c1ccn2C1OC(CO)C(O)C1O (stereo not drawn)
13.6 µM
c1ccc(/C(=N\Nc2ccc3ccccc3n2)c2ccccn2)cc1
1.11 µM

Ask: Indicate its recorded GI50; the compound in question is O=C(NN1C(=O)CSC12CCC(c1ccccc1)CC2)c1[nH]c2ccc(F)cc2c1-c1ccccc1 (stereo not drawn)
Reply: 15.7 µM

====

tested on: K-562 leukemia; assay: NCI tumour cell line growth inhibition, 48 h
Where a SMILES comes first, the peptide text is derived from it.
Each item that follows carries a reported TGI.

Consider the following illustrative entries.
Cc1cc(-c2ccc(C(=O)C(c3ccccc3)(c3ccccc3)c3ccccc3)[nH]2)on1
> 100 µM
CC(=O)NC(CO)C(=O)NC(Cc1ccc(O)cc1)C(=O)NCC(N)=O (stereo not drawn) (Ac-Ser-Tyr-Gly-NH2; configuration not given here)
> 100 µM
COC(=O)C1=C(c2ccc(Cl)cc2)C(O)N=C(NN)N1 (stereo not given)
> 100 µM

Ask: GET TGI where system = K-562 leukemia and item = COC1(Cc2ccccc2)C(=O)c2ccccc2N1C(C)=O (stereo not given)
Reply: > 100 µM

Ask: GET TGI where system = K-562 leukemia and item = O=C(NN1C(=O)CSC12CCC(c1ccccc1)CC2)c1[nH]c2ccc(F)cc2c1-c1ccccc1 (stereo not given)
Reply: 62.9 µM

Ask: GET TGI where system = K-562 leukemia and item = S=C(Nc1cccc(C2(N3CCCCC3)CCCCC2)c1)Nc1cccc(C2(N3CCCCC3)CCCCC2)c1
Reply: 27.5 µM

Ask: GET TGI where system = K-562 leukemia and item = c1ccc(/C(=N\Nc2ccc3ccccc3n2)c2ccccn2)cc1
Reply: 6.52 µM

Ask: GET TGI where system = K-562 leukemia and item = OC1c2ccccc2C2C(O)c3ccccc3C12 (stereo not given)
Reply: > 100 µM

Ask: GET TGI where system = K-562 leukemia and item = NCCC1([N+](=O)[O-])CCNCC1
Reply: > 100 µM

Ask: GET TGI where system = K-562 leukemia and item = Nc1cc(N)c(N=Nc2cccc3c(S(=O)(=O)O)cccc23)cc1N=Nc1cc([N+](=O)[O-])ccc1O
Reply: > 100 µM

====

tested on: LOX IMVI melanoma; assay: NCI tumour cell line growth inhibition, 48 h; in the data active means GI50 below about 0.43 µM; inactive means the rest
Allowed answers: label 1 (active), label 0 (inactive)

COc1ccc(C=C2C(=O)NC(=O)NC2=O)cc1OCc1ccccc1
label 0

Ask: Which outcome was entered for the compound COc1ccc2c(c1OC)C(=O)O[C@@H]2[C@H]1c2c(c(Br)c3c(c2OC)OCO3)CCN1C in this test?
Reply: label 0

Ask: Which outcome was entered for the compound COc1ccc(CN=C(N)N=C(N)N)cc1OC in this test?
Reply: label 0

Ask: Which outcome was entered for the compound O=C(NN1C(=O)CSC12CCC(c1ccccc1)CC2)c1[nH]c2ccc(F)cc2c1-c1ccccc1 (stereo not drawn) in this test?
Reply: label 0

Ask: Which outcome was entered for the compound O=C(Cn1c2ccccc2c2ccncc21)N/N=C\c1ccc2ccccc2c1 in this test?
Reply: label 0

Ask: Which outcome was entered for the compound CCN(CC)CCC(=O)O[C@H]1CC[C@H](CC(C)[C@H]2CC(=O)C(C)C=C(C)[C@H](OC(=O)CCN(CC)CC)C(OC)C(=O)[C@@H](C)CC(C)/C=C/C=C/C=C(C)C(OC)CC3CC[C@H](C)[C@](O)(O3)C(=O)C(=O)N3CCCCC3C(=O)O2)CC1OC (stereo partly drawn) in this test?
Reply: label 1

Ask: Which outcome was entered for the compound c1ccc(/C(=N\Nc2ccc3ccccc3n2)c2ccccn2)cc1 in this test?
Reply: label 0

Ask: Which outcome was entered for the compound Cc1c(C(N)=O)sc2c1c(=O)n(Cc1ccccc1)c1nnc(S(=O)(=O)CC(=O)Nc3ccc(Cl)cc3)n21 in this test?
Reply: label 0
